Assay: Rodent brain penetration study
Type: in vivo, Male Wistar rats
Settings: male, Wistar, brain and plasma, po; rat, 3 mg/kg, p.o. @ 1.0 hr, brain-plasma ratio; read-out: Single dose Rat Brain Penetration (Cb/Cp)
endpoint: Kp at 1 h

Worked set:
{"columns": ["compound-string", "observed-result"],
 "data": [
  ["Cn1cc(-c2ccc(Cc3cc(C(=O)N[C@H]4CCCC[C@@H]4O)n4ncccc34)cc2)cn1", 0.15],
  ["COc1ccc(Cc2cc(C(=O)N[C@H]3CCCC[C@@H]3O)n3ncccc23)cc1", 1.52],
  ["O=C(N[C@H]1CCCC[C@@H]1O)c1cc(Cc2ccc(-n3cccn3)cc2)c2cccnn12", 0.24],
  ["O=C(N[C@H]1CCCC[C@@H]1O)c1cc(Cc2ccc(Br)c(F)c2)c2cccnn12", 1.9],
  ["Cn1cc(-c2ccc(Cc3cc(C(=O)N[C@H]4CCCC[C@@H]4O)n4ncccc34)cc2F)cn1", 0.2]
]}

a: O=C(N[C@H]1CCCC[C@@H]1O)c1cc(Cc2ccc3c(c2)CCO3)c2cccnn12
b: Cn1cc(-c2ccc(Cc3cc(C(=O)N[C@H]4CCCC[C@@H]4O)n4ncccc34)c(F)c2)cn1
Lab note: record which item had the higher Kp at 1 h, a or b . Identify your pick by its label.
a
(a: 1.31, b: 0.13)

---

Molecular target: recombinant human Muscarinic M1 receptor (Homo sapiens)
Sequence (P11229 whole entry): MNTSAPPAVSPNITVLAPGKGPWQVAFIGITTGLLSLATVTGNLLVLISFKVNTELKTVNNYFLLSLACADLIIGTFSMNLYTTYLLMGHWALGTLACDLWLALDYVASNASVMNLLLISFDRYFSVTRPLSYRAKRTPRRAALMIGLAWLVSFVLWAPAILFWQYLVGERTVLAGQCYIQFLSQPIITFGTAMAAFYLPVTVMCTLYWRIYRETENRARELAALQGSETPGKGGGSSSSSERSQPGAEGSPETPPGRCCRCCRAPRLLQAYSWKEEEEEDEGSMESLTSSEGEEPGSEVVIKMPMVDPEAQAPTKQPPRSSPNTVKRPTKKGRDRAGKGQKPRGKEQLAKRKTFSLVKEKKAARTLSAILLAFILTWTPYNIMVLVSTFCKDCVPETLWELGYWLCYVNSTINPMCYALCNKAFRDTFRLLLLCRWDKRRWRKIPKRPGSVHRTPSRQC
Experiment: Allosteric potency EC50 for Muscarinic M1 receptor, CHO pCRE-Luc reporter assay with EC20 of acetylcholine
Conditions: CHO cells, in presence of EC20 of acetylcholine, 4 hours
pEC50: −log10 of the molar value.
endpoint: pEC50

As a guide, the following entries are already answered.
{"columns": ["compound", "observed-result"],
 "data": [
  ["Cn1cc(-c2cc(Cc3cc(C(=O)N[C@H]4CCCC[C@@H]4O)n4ncccc34)ccc2F)cn1 [Example 37]", 6.00],
  ["O=C(N[C@H]1CCCC[C@@H]1O)c1cc(Cc2ccc3c(c2)CCO3)c2cccnn12 [Example 4]", 6.08],
  ["Cn1cc(-c2ccc(Cc3cc(C(=O)NC4COCCC4O)c4c(F)cccn34)cc2)cn1 (stereo not shown) [Example 51]", 5.44],
  ["O=C(NC1CCOCC1O)c1cc(Cc2cccc(F)c2)c2cccnn12 (stereo not shown) [Example 30]", 5.78],
  ["O=C(NC1CCOCC1)c1cc(Cc2ccc(-n3cccn3)cc2)c2cccnn12 [Example 22]", 5.75],
  ["Cn1cc(-c2ccc(Cc3cc(C(=O)NC4CCOCC4)c4c(F)cccn34)cc2)cn1 [Example 50]", 5.60],
  ["COc1cccc(Cc2cc(C(=O)N[C@H]3CCCC[C@@H]3O)n3ncccc23)c1 [Example 6]", 5.52],
  ["O=C(N[C@H]1CCCC[C@@H]1O)c1cc(Cc2cccc(F)c2)c2cccnn12 [Example 19]", 5.68],
  ["Cn1cc(-c2cccc(Cc3cc(C(=O)N[C@H]4CCCC[C@@H]4O)n4ncccc34)c2)cn1 [Example 38]", 5.82],
  ["O=C(N[C@H]1CCCC[C@@H]1O)c1cc(Cc2ccc(Br)c(F)c2F)c2cccnn12 [Example 25]", 5.64]
]}

I: Cn1cc(-c2ccc(Cc3cc(C(=O)N[C@H]4CCCC[C@@H]4O)n4ncccc34)c(F)c2)cn1 [Example 34]
II: Cn1cc(-c2cc(Cc3cc(C(=O)N[C@H]4CCCC[C@@H]4O)n4ncccc34)ccn2)cn1 [Example 40]
// compare measured pEC50 between I and II ; output the lower one Give the label of your selection.
II

I: Cn1cc(-c2ccc(Cc3cc(C(=O)NC4CCOCC4O)c4c(F)cccn34)cc2)cn1 (stereo not shown) [Example 49]
II: Cn1cc(-c2ccc(Cc3cc(C(=O)N[C@H]4CCCC[C@@H]4O)c4c(F)cccn34)cc2)cn1 [Example 48]
III: O=C(N[C@H]1CCCC[C@@H]1O)c1cc(Cc2ccc(-c3cscn3)cc2)n2cccc(F)c12 [Example 45]
Put the items in sequence by pEC50, from largest down. Would you mind listing the labels in the order requested?
II, I, III
(II: 6.78, I: 5.92, III: 5.50)
